assay: protein stability index of a GFP-peptide fusion (GPS, HEK-293T) (PSI 1-6); higher = more stable; details: treatment: MLN4924 1 uM, 8 h; c terminus: a fixed tail appended;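 also: 24-mer peptide tiles fused after GFP, lentivirally expressed, FACS-sorted into six equal bins by GFP/DsRed ratio, decoded by Illumina sequencing, PSI is the read-weighted mean bin number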
So I've got a bunch of sequences here, and I need their protein stability index values.

Q) Tell me protein stability index reported for GKNWSKLCKDCQVIDGRNVTVTDV [TPPP]
A) 3.92

Q) Tell me protein stability index reported for NYTSRVWEYSSSIQNSDNDLPVVQ [TRIM29]
A) 4.02

Q) Tell me protein stability index reported for HLSSPAKNFFKKAAAALFGGKKDK [PLK2]
A) 2.53

Q) Tell me protein stability index reported for YPITLYLEKEREKEISDDEAEEEK [HSP90AB1]
A) 5.3

Q) Tell me protein stability index reported for TSASFGEESTPGQTNSETAVVALT [HDAC6]
A) 5.05

Q) Tell me protein stability index reported for HPVCSLCWSRDGHKLVSASTDNIV [RBBP5]
A) 2.95

Q) Tell me protein stability index reported for KAFSRSSGLFNHRGIHNIQKRYHC [ZSCAN9]
A) 2.45

Q) Tell me protein stability index reported for PNCLSMGSRCLKTFEVPEENTAET [ZBED1]
A) 4.93

Q) Tell me protein stability index reported for LHAELCQAGSSQGLSLCQFQNFSL [LPCAT4]
A) 2.21

Q) Tell me protein stability index reported for VYASDKEWIRFDQSNVLCSIFGIC [PTGFR]
A) 2.24

Q) Tell me protein stability index reported for VLFNEKIREQIKKYRRHFLRFCHN [EIF5]
A) 3

Q) Tell me protein stability index reported for GCSSSGSCSQGSGILHYAHGDSQQ [CRY1]
A) 3.67

Q) Tell me protein stability index reported for HMVSDGSWVVRVQAAKLLGSMEQV [INTS4]
A) 2.1

Q) Tell me protein stability index reported for ALGKLLPRETLCTELVLSDCMLSE [LRRC45]
A) 2.67

Q) Tell me protein stability index reported for EGTLGYAIGGTYLGPAFRGLKGRT [SPSB2]
A) 3.06

Q) Tell me protein stability index reported for QDRDALHMEGLIVRERILGADNID [FEM1B]
A) 4.29

Q) Tell me protein stability index reported for PGNQAEHGAVTVGGTSVGSLGVPG [ZBTB22]
A) 4.75

Q) Tell me protein stability index reported for KAASLARNLAKRRRTYLGGAAGRS [RSPH3]
A) 3.56

Q) Tell me protein stability index reported for ENNMLQPETHIFTAPEEVPKVSDQ [DMRTC1]
A) 5.56

Q) Tell me protein stability index reported for SALERLETKLHLLRQEMVNLRATD [LURAP1L]
A) 2.79

Q) Tell me protein stability index reported for IAKAEETHSSLSQELQARLQTVTR [CCDC89]
A) 4.13

Q) Tell me protein stability index reported for VPLQLSAHWQCGATLTQVSVEYGY [FCHO1]
A) 2.6

Q) Tell me protein stability index reported for AQSAGTQQVAAVSSVSPATPFQSV [BRD3]
A) 4.37

Q) Tell me protein stability index reported for NQAAIMELDDTLKYSFLQFDPAPR [PPP2CA]
A) 3.38

Q) Tell me protein stability index reported for EKYKTQIDHYVGIARDQTKSIVEK [RTN3]
A) 4.15

Q) Tell me protein stability index reported for DKLKIDLLPDGRHAVVEVEDVPLA [TAF7L]
A) 4.8

Q) Tell me protein stability index reported for PRELFPPLFMAAFDGRHSQTLKAM [PRAME]
A) 2.69

Q) Tell me protein stability index reported for GLPGSGKTTLARQLQHDFPRALIF [N4BP2L1]
A) 2.56

Q) Tell me protein stability index reported for CYKGHKEIAQYLLEKGADVNRKSV [FEM1C]
A) 3.38

Q) Tell me protein stability index reported for SGVSDYDYLDLDKMSLYSEADSGY [TRIM9]
A) 3.76

Q) Tell me protein stability index reported for QCPGLGPAPTPTPPGRLGAPYSEA [ZBED3]
A) 4.25

Q) Tell me protein stability index reported for TQVLEDSEDSFCRRHPGLGKAFPS [TRAF3IP2]
A) 4.12

Q) Tell me protein stability index reported for MFQGWNCGDYFPDGITNGASWYSL [CPN1]
A) 2.31

Q) Tell me protein stability index reported for ELEMIGFIENNVSKLSLLLNDISR [TRIP13]
A) 2.63

Q) Tell me protein stability index reported for SLRQKQPERLCSGPGIVGNVLVDP [GMPPB]
A) 3.46

Q) Tell me protein stability index reported for LTQDWVQENYLEYRQVPGSDPARY [MAGEA10]
A) 3.88

Q) Tell me protein stability index reported for ENILSFMSYDEISQLRLVCKRMDL [FBXO28]
A) 2.35

Q) Tell me protein stability index reported for AIGRVRVLEEQLVKAKEQIENYKK [FUT8]
A) 4.28

Q) Tell me protein stability index reported for LAQLLDTLLAIGTKLPENQAIQMR [INTS4]
A) 2.76

Q) Tell me protein stability index reported for PDLRDIELKLGRKVPESLVRSLRG [LURAP1L]
A) 3.17
